target: Fuc(a1-3)[GalNAc(b1-4)]GlcNAc; test: glycan array binding signal (z-score within array); higher = stronger binding; details: glycan notation: IUPAC condensed, linker removed
About 410 targets per protein were measured; listed, in parts, are those with the strongest signals and a random draw of the rest.
experimental.endpoint: glycan array binding signal (z-score)

Record excerpt, results attached:
Clone646PsrP (Streptococcus pneumoniae) (protein) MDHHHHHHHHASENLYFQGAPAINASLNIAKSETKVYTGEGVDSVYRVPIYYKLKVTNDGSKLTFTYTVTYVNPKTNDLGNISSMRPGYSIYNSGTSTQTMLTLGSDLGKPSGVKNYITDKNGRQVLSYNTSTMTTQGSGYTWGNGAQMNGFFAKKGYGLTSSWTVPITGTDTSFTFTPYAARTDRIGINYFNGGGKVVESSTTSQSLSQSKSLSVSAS :: 0.979
BC2L-A (Burkholderia cenocepacia), Q1BKJ8_BURCA (protein) ADSQTSSNRAGEFSIPPNTDFRAIFFANAAEQQHIKLFIGDSQEPAAYHKLTTRDGPREATLNSGNGKIRFEVSVNGKPSATDARLAPINGKKSDGSPFTVNFGIVVSEDGHDSDYNDGIVVLQWPIG :: -0.263

Let's switch to this binder now.
response.value for HA-11100 (Pseudomonas aeruginosa), Q02G51_PSEAB (protein) QFNPNEIKISQQGKTTLIDQSTQRAIINWKGFDVSADEAVRFNQPGVTSSTLNRVTAGQESVIAGRISAPGQVIIYNSNGVVFSGSAKVDVGSLITTTANISDEHFRQGKLIFDQPGNPDARIVNDGSISVAEKGLAAFVAPSVANNGVINARLGTVAMAAGNAATIDLYG (field: glycan array binding signal (z-score)) = -0.403
